# maps each entry to its inhibition at 3 µM
# measured.on: Human CaV2.2 channels (Homo sapiens, UniProt Q00975)
# Construct: expressed in transfected cells
# Sequence (P54289 947-1103): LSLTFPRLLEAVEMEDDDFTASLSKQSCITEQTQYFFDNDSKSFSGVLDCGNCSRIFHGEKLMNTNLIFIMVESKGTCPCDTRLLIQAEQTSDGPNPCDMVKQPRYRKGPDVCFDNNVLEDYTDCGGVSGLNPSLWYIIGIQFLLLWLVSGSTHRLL
# Sequence (P54289 25-946): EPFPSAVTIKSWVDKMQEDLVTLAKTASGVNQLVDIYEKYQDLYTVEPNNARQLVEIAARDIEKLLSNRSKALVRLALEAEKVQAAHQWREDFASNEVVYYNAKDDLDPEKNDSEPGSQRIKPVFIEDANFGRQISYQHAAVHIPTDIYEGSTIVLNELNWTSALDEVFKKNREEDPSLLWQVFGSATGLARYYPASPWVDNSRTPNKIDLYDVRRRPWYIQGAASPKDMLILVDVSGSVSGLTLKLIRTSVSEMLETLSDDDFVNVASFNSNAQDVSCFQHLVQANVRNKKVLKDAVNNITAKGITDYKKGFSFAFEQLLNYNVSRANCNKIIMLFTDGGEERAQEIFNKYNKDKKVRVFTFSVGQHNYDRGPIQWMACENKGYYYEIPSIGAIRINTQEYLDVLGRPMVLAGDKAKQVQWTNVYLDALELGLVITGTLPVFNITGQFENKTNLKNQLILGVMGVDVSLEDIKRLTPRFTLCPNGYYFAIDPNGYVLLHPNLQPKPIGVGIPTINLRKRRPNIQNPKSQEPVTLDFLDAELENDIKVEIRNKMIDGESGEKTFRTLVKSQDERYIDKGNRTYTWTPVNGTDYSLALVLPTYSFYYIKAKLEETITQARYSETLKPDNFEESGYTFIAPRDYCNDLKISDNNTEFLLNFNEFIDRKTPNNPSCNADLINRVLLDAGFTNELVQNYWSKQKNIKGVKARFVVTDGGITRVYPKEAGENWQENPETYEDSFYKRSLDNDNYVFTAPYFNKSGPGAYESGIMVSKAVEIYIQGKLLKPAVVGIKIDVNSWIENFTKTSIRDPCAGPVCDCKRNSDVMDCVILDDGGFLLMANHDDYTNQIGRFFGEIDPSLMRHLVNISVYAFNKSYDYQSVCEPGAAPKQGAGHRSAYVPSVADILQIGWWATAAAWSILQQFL
# Sequence (P54284 whole entry, further chain): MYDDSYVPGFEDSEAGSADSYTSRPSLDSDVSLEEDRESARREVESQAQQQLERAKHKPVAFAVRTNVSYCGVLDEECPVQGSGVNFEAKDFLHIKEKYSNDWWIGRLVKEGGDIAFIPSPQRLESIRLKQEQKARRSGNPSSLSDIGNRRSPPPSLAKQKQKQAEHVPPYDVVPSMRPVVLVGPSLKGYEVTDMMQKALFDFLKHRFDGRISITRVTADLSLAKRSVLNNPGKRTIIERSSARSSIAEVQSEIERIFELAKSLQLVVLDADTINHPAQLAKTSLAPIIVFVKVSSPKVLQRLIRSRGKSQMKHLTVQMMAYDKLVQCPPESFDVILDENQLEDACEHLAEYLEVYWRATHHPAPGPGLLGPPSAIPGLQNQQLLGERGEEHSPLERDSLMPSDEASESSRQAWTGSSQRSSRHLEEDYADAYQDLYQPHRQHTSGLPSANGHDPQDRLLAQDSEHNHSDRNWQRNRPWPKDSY
# Sequence (Q00975 whole entry): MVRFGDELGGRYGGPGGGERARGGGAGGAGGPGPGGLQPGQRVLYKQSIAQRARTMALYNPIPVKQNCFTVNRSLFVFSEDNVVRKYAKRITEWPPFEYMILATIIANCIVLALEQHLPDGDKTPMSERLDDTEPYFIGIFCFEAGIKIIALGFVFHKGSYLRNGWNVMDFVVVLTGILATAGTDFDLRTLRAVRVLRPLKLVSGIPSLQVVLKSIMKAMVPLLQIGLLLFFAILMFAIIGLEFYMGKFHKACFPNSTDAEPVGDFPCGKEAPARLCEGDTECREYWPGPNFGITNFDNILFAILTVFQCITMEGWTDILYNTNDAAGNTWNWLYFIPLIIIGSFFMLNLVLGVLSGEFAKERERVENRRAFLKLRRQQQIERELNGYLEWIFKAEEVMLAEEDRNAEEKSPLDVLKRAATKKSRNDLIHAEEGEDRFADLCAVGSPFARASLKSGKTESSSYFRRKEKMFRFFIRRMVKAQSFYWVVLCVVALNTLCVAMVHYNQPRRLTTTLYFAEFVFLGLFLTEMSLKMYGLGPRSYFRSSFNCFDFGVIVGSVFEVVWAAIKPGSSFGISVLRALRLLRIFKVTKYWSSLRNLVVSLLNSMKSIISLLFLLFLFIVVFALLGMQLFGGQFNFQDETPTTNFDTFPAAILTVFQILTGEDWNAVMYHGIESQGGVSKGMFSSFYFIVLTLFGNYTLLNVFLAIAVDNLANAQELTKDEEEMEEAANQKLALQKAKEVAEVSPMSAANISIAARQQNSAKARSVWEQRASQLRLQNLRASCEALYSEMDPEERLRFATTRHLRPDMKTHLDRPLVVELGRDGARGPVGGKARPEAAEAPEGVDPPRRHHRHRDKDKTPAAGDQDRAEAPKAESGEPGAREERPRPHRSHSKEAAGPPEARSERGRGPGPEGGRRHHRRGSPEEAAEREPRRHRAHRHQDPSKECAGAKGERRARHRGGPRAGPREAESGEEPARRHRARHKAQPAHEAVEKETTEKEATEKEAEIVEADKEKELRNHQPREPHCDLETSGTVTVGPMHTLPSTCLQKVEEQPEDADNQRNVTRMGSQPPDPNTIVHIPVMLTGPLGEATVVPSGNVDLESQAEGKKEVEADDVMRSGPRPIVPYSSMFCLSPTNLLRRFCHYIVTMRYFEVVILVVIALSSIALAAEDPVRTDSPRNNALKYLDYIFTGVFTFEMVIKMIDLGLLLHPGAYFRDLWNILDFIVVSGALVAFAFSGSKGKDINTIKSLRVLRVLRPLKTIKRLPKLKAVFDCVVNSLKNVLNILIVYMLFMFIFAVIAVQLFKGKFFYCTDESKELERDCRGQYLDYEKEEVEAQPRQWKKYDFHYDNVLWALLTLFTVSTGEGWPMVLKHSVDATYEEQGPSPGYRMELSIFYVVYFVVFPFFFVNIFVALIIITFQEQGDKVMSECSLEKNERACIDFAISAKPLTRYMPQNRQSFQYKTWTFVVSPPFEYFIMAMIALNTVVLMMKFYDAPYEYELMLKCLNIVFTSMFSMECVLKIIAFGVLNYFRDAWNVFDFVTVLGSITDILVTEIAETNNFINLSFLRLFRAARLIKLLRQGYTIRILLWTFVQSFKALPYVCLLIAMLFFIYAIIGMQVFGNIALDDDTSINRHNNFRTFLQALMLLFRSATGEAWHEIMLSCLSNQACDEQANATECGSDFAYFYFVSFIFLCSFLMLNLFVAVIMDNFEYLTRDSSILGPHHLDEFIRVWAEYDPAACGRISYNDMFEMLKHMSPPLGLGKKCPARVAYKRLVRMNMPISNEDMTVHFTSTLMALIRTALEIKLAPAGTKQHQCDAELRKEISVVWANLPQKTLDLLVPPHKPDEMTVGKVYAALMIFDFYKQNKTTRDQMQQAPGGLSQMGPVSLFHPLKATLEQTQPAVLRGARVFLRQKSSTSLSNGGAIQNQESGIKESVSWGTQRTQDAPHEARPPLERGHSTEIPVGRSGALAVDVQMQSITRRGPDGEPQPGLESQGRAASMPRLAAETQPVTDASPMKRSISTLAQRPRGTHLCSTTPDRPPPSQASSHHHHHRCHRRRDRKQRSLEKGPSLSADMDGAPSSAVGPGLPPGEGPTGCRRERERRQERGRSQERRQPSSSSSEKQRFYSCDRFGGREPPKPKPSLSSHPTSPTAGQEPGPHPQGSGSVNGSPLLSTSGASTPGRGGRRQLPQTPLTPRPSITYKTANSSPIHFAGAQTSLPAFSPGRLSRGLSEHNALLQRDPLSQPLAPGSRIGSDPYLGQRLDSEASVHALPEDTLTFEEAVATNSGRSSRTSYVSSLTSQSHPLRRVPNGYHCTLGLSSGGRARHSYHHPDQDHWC
# experiment: Fluorescence assay for CaV2.2 channels using potassium depolarization to induce channel opening (FLIPR, Fluo 4)
# Format: cell-based
# experimental.setup: HEK293, 3 μM test compound; alternative assay buffer 30 mM KCl (inactivated channel state); HEK293 cells stably expressing human CaV2.2; read-out: Activity Category: %-Inhib (CaV2.2) @3 μM @30 mM KCl

molecule | inhibition at 3 µM
CC1(S(=O)(=O)c2cccc(C(F)(F)F)c2)CCOC(COc2ccc(C(F)(F)F)nc2)C1 (centres unmarked) | 75 to 95%
CC1(S(=O)(=O)c2cccc(C(F)(F)F)c2)CCOC(c2ncc(OC(F)F)cc2Cl)C1 (centres unmarked) [SC-427] | > 95%
CC1(S(=O)(=O)c2cccc(C(F)(F)F)c2)CCOC(c2cnc(C3CC3)cn2)C1 (racemic) [SC-328] | > 95%
CCC1(S(=O)(=O)c2cccc(C(F)(F)F)c2)CCOC(c2nnc(C(F)(F)F)o2)C1 (racemic) | 40 to 75%
CC1(S(=O)(=O)c2cccc(C(F)(F)F)c2)CCOC(c2cnc(C3CC3)nc2)C1 (centres unmarked) | > 95%
COc1cc(S(C)(=O)=O)cnc1C1CC(C)(S(=O)(=O)c2cccc(C(F)(F)F)c2)CCO1 (centres unmarked) | 75 to 95%
C[S+]([O-])c1cc(C(F)(F)F)cnc1C1CC(C)(S(=O)(=O)c2cccc(C(F)(F)F)c2)CCO1 (centres unmarked) | > 95%
Cc1cc(S(C)(=O)=O)cnc1C1CC(C)(S(=O)(=O)c2cccc(C(F)(F)F)c2)CCO1 (racemic) [SC-441] | 75 to 95%

----------
# measured.on: Human CaV2.2 channels (Homo sapiens, UniProt Q00975)
# Construct: expressed in transfected cells
# experiment: Fluorescence assay for CaV2.2 channels using potassium depolarization to induce channel opening (FLIPR, Fluo 4)
# Type: cell-based
# experimental.setup: HEK293, 3 μM test compound; alternative assay buffer 30 mM KCl (inactivated channel state); HEK293 cells stably expressing human CaV2.2; read-out: Activity Category: %-Inhib (CaV2.2) @3 μM @30 mM KCl
# maps each entry to its inhibition at 3 µM
observable: inhibition at 3 µM

molecule | observable | result
CCC1(S(=O)(=O)c2cccc(C(F)(F)F)c2)CCOC(c2nc(C(F)(F)F)no2)C1 (centres unmarked) | inhibition at 3 µM | 75 to 95%
CC1(S(=O)(=O)c2cccc(C(F)F)c2)CCOC(c2ncc(S(C)(=O)=O)cc2Cl)C1 (centres unmarked) | inhibition at 3 µM | 40 to 75%
CCC1(S(=O)(=O)c2cccc(C(F)(F)F)c2)CCOC(c2noc(C3CC3)n2)C1 (centres unmarked) | inhibition at 3 µM | 75 to 95%
CC1(S(=O)(=O)c2cccc(C(F)(F)F)c2)CCOC(c2ccc(N3CCCC3)nc2)C1 (centres unmarked) [SC-400] | inhibition at 3 µM | > 95%
CC1(S(=O)(=O)c2cccc(C(F)(F)F)c2)CCOC(c2ccc(C3CC3)nc2)C1 (centres unmarked) [SC-346] | inhibition at 3 µM | 75 to 95%
CC1(S(=O)(=O)c2cccc(C(F)(F)F)c2)CCOC(c2ncc(Cl)cc2S(C)(=O)=O)C1 (centres unmarked) | inhibition at 3 µM | 75 to 95%
Cc1cccc(C2CC(S(=O)(=O)c3cccc(C(F)(F)F)c3)CCO2)n1 (racemic) | inhibition at 3 µM | 40 to 75%
CC1(S(=O)(=O)c2cccc(C(F)(F)F)c2)CCOC(c2cccc(C(F)(F)F)n2)C1 (racemic) | inhibition at 3 µM | > 95%

----------
# measured.on: Human CaV2.2 channels (Homo sapiens, UniProt Q00975)
# Construct: expressed in transfected cells
# experiment: Fluorescence assay for CaV2.2 channels using potassium depolarization to induce channel opening (FLIPR, Fluo 4)
# Format: cell-based
# experimental.setup: HEK293, 3 μM test compound; alternative assay buffer 30 mM KCl (inactivated channel state); HEK293 cells stably expressing human CaV2.2; read-out: Activity Category: %-Inhib (CaV2.2) @3 μM @30 mM KCl
# maps each entry to its inhibition at 3 µM

compound | measured.on | inhibition at 3 µM
COc1ncc(C2CC(C)(S(=O)(=O)c3cccc(C(F)(F)F)c3)CCO2)cn1 (centres unmarked) | Human CaV2.2 channels (Homo sapiens, UniProt Q00975) | 40 to 75%
COc1cc(O)c(C2CC(C)(S(=O)(=O)c3cccc(C(F)(F)F)c3)CCO2)cn1 (centres unmarked) | Human CaV2.2 channels (Homo sapiens, UniProt Q00975) | 40 to 75%
CC1(S(=O)(=O)c2cccc(C(F)(F)F)c2)CCOC(c2ncc(S(C)(=O)=O)cc2OC(F)F)C1 (centres unmarked) | Human CaV2.2 channels (Homo sapiens, UniProt Q00975) | 75 to 95%
CCC1(S(=O)(=O)c2cccc(C(F)(F)F)c2)CCOC(c2nc(C3CC3)no2)C1 (centres unmarked) | Human CaV2.2 channels (Homo sapiens, UniProt Q00975) | 75 to 95%
CC1(S(=O)(=O)c2cccc(C(F)(F)F)c2)CCOC(c2ncc(C(F)(F)F)cc2Cl)C1 (racemic) | Human CaV2.2 channels (Homo sapiens, UniProt Q00975) | > 95%
CC1(S(=O)(=O)c2cccc(C(F)(F)F)c2)CCOC(c2ccc(C(F)(F)F)nc2)C1 (centres unmarked) [SC-315] | Human CaV2.2 channels (Homo sapiens, UniProt Q00975) | > 95%
CCC1(S(=O)(=O)c2cccc(C(F)(F)F)c2)CCOC(c2cccnc2C)C1 (racemic) [SC-314] | Human CaV2.2 channels (Homo sapiens, UniProt Q00975) | 40 to 75%
CC1(S(=O)(=O)c2cccc(C(F)(F)F)c2)CCOC(c2ncc(S(C)(=O)=O)cc2C(F)(F)F)C1 (centres unmarked) | Human CaV2.2 channels (Homo sapiens, UniProt Q00975) | 75 to 95%

----------
# maps each entry to its inhibition at 3 µM
# measured.on: Human CaV2.2 channels (Homo sapiens, UniProt Q00975)
# Construct: expressed in transfected cells
# experiment: Fluorescence assay for CaV2.2 channels using potassium depolarization to induce channel opening (FLIPR, Fluo 4)
# Format: cell-based
# experimental.setup: HEK293, 3 μM test compound; alternative assay buffer 30 mM KCl (inactivated channel state); HEK293 cells stably expressing human CaV2.2; read-out: Activity Category: %-Inhib (CaV2.2) @3 μM @30 mM KCl
observable: inhibition at 3 µM

molecule | measured.on | observable | result
CC1(S(=O)(=O)c2cccc(C(F)(F)F)c2)CCOC(c2ncc(OC(F)F)cc2Cl)C1 (racemic) [SC-438] | Human CaV2.2 channels (Homo sapiens, UniProt Q00975) | inhibition at 3 µM | > 95%
CC(C)Oc1ccc(C2CC(C)(S(=O)(=O)c3cccc(C(F)(F)F)c3)CCO2)cn1 (stereo not shown) [SC-300] | Human CaV2.2 channels (Homo sapiens, UniProt Q00975) | inhibition at 3 µM | > 95%
CC1(S(=O)(=O)c2cccc(C(F)(F)F)c2)CCOC(c2ncc(C(F)(F)F)cc2S(C)(=O)=O)C1 (stereo not shown) | Human CaV2.2 channels (Homo sapiens, UniProt Q00975) | inhibition at 3 µM | 75 to 95%
CCC1(S(=O)(=O)c2cccc(C(F)(F)F)c2)CCOC(c2ccc(C)nc2C)C1 (racemic) | Human CaV2.2 channels (Homo sapiens, UniProt Q00975) | inhibition at 3 µM | 40 to 75%
COc1cc(F)c(C2CC(C)(S(=O)(=O)c3cccc(C(F)(F)F)c3)CCO2)cn1 (racemic) [SC-259] | Human CaV2.2 channels (Homo sapiens, UniProt Q00975) | inhibition at 3 µM | > 95%
Cc1cc(S(C)(=O)=O)cnc1C1CC(C)(S(=O)(=O)c2cccc(C(F)(F)F)c2)CCO1 (stereo not shown) [SC-262] | Human CaV2.2 channels (Homo sapiens, UniProt Q00975) | inhibition at 3 µM | 75 to 95%
CC1(S(=O)(=O)c2cc(F)cc(C(F)F)c2)CCOC(c2ncc(S(C)(=O)=O)cc2Cl)C1 (stereo not shown) | Human CaV2.2 channels (Homo sapiens, UniProt Q00975) | inhibition at 3 µM | 40 to 75%
CCC1(S(=O)(=O)c2cccc(C(F)(F)F)c2)CCOC(c2cnc(C3CC3)cn2)C1 (racemic) [SC-333] | Human CaV2.2 channels (Homo sapiens, UniProt Q00975) | inhibition at 3 µM | > 95%
CC1(S(=O)(=O)c2cccc(C(F)(F)F)c2)CCOC(c2ncc(S(C)(=O)=O)cc2F)C1 (single isomer, unassigned) | Human CaV2.2 channels (Homo sapiens, UniProt Q00975) | inhibition at 3 µM | 75 to 95%
CC1(S(=O)(=O)c2cccc(C(F)(F)F)c2)CCOC(c2ncc(S(C)(=O)=O)cc2C2CC2)C1 (stereo not shown) | Human CaV2.2 channels (Homo sapiens, UniProt Q00975) | inhibition at 3 µM | 75 to 95%
CCC1(S(=O)(=O)c2cccc(C(F)(F)F)c2)CCOC(c2cccnc2C)C1 (stereo not shown) [SC-312] | Human CaV2.2 channels (Homo sapiens, UniProt Q00975) | inhibition at 3 µM | 40 to 75%
CCC1(S(=O)(=O)c2cccc(C(F)(F)F)c2)CCOC(c2cccc(C)n2)C1 (stereo not shown) [SC-324] | Human CaV2.2 channels (Homo sapiens, UniProt Q00975) | inhibition at 3 µM | 75 to 95%
CC1(S(=O)(=O)c2cccc(C(F)(F)F)c2)CCOC(c2cnc(C3CC3)cn2)C1 (stereo not shown) [SC-327] | Human CaV2.2 channels (Homo sapiens, UniProt Q00975) | inhibition at 3 µM | 75 to 95%
Cn1nc(C(F)(F)F)cc1C1CC(C)(S(=O)(=O)c2cccc(C(F)(F)F)c2)CCO1 (racemic) [SC-344] | Human CaV2.2 channels (Homo sapiens, UniProt Q00975) | inhibition at 3 µM | 75 to 95%
Cc1ccc(OCC2CC(C)(S(=O)(=O)c3cccc(C(F)(F)F)c3)CCO2)cn1 (stereo not shown) | Human CaV2.2 channels (Homo sapiens, UniProt Q00975) | inhibition at 3 µM | 75 to 95%
CC1(S(=O)(=O)c2cccc(C(F)(F)F)c2)CCOC(c2ncc(S(C)(=O)=O)cc2Cl)C1 (single isomer, unassigned) | Human CaV2.2 channels (Homo sapiens, UniProt Q00975) | inhibition at 3 µM | 75 to 95%
